measurementTarget: full-length beta-Catenin (Uniprot ID P35222) (Homo sapiens (Human)) (UniProt P35222)
Sequence (P35222 whole entry): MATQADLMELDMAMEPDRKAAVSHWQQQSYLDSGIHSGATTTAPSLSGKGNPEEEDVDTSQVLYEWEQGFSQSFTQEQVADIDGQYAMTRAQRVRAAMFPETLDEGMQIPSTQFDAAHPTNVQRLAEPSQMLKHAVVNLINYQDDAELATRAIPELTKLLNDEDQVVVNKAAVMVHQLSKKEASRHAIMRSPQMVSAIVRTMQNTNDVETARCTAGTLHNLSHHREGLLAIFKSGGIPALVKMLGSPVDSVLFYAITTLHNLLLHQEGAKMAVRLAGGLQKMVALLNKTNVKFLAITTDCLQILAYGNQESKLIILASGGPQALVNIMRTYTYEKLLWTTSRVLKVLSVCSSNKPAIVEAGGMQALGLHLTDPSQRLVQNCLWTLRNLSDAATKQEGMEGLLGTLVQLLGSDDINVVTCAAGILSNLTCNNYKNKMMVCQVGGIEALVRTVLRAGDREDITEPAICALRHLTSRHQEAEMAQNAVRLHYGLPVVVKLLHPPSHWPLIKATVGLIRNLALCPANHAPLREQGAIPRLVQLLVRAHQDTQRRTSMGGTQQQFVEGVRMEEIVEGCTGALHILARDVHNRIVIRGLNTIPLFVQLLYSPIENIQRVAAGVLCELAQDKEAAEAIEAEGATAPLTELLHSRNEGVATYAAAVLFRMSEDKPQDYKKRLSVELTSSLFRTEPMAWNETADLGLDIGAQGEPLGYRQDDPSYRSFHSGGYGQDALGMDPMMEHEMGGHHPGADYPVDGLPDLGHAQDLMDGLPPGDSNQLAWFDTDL
assayInfo: fluorescence polarization competition against 5FAM-TCF4 10-53 on full-length beta-catenin
Starred links: 1 amine or outer side, 2 acyl side, 3 side chain; linkers in the order of their positions; H or OH if unused. Positions of bridges follow the written chain, without caps; N, C: chain ends. Non-standard residues stand in square brackets, D forms with d. Primed or numbered codes have the meaning given here. *: point of attachment. PyrS2″ = (S)-3-amino-1-((pent-4-en-1-yloxy)carbonyl)pyrrolidine-3-carboxylic acid (stapling residue), C=CCCCOC(=O)N1CC[C@@](N[*:1])(C(=O)[*:2])C1; B5(4) = 2,2-bis(4-pentenyl)glycine = 2-amino-2-(pent-4-en-1-yl)hept-6-enoic acid (stitching residue), C=CCCCC(CCCC=C)(N[*:1])C(=O)[*:2]; PyrS2 = (S)-3-amino-1-((pent-4-en-1-yloxy)carbonyl)pyrrolidine-3-carboxylic acid, C=CCCCOC(=O)N1CC[C@@](N[*:1])(C(=O)[*:2])C1; B5(19) = 2-amino-2-(pent-4-en-1-yl)hept-6-enoic acid (bis(4-pentenyl)glycine), C=CCCCC(CCCC=C)(N[*:1])C(=O)[*:2]; Bta = N[C@@H](Cc1csc2ccccc12)C(=O)O; Lys(iPr) = CC(C)NCCCC[C@H](N)C(=O)O; αAllylPro = C=CC[C@@]1(C(=O)O)CCCN1; tBuAla = CC(C)(C)C[C@H](N)C(=O)O; 3Thi = N[C@@H](Cc1ccsc1)C(=O)O; hSer = N[C@@H](CCO)C(=O)O; Moc = COC(=O)*
measurementLabel: pIC50
Quick note: pIC50 means taking -log10 of the concentration in moles per liter.

Query block: Answer with the recorded pIC50 for the binder listed here: Ac-[αAllylPro]D[tBuAla][B5(19)]DWAAF[hSer][PyrS2][3Thi][Bta]Q-NH2 (staple 1-4, 4-11) [I-1789]
Result block: 6.74

Query block: Find the measured pIC50 of Moc-[αAllylPro]D[tBuAla][B5(4)]DDAAFQ[PyrS2″][3Thi][Bta]H-NH2 (staple 1-4, 4-11) [I-2362] and report it.
Result block: 7.18

Query block: Supply measured pIC50 of Ac-[αAllylPro]N[tBuAla][B5(4)]DT[Lys(iPr)]ASL[PyrS2]F[Bta]Q-NH2 (staple 1-4, 4-11) [I-1597] in your reply.
Result block: 5.16

Provenance of the data: patent US20240116985A1
